test: Cytotoxicity against HEK293 cells; type: toxicity, cell-based; conditions: human
pIC50: −log10 of the molar value.

Chemical structure: CC1(C)[C@H](Cc2[nH]c3ccccc3c2CC[N+](C)(C)O)O[C@]23OC[C@H](O)[C@H]2OC(=O)[C@]13O
pIC50: 7.10

---

tested on: Plasmodium falciparum; assay: Antiplasmodial activity against multidrug resistant Plasmodium falciparum K1 assessed as growth inhibition; type: functional, organism-based

Chemical structure: Cn1c2c3cc(Br)ccc3nc-2cc2cc(Br)ccc21
IC50, nM: 50
